# F. IND = fold induction (IND/REP) (B-galactosidase) annotations
Test system: E. coli assay strain Km3
Assay: Liquid B-galactosidase assays of chlorsulfuron repressor hits (induction and repression)
Conditions: CsL4.2 hits; 20 ppb Cs vs no inducer
Method: In order to create new diversity for shuffling the top clone from CsL3 was subjected to error prone PCR mutagenesis using Mutazyme (Stratagene). […] The top hits were then subjected to liquid B-galactosidase assays for quantitative assessment (Table 21). […] Mutagenesis reactions were transformed into E. coli assay strain Km3 and plated onto LB+50 ug/ml Carbenecillin. […] Putative hits were then re-arrayed and analyzed by B-galactosidase assays relative to the parent clones (FIG. 10).
MEASUREMENT_TYPE: F. IND = fold induction (IND/REP) (B-galactosidase)

MOLECULE	RESULT
CsL4.2-28 (protein, Sulfonylurea responsive repressor) MARLDKSKVINSALELLNEVGIEGLTTRKLAQKLGVEQPTLYWHVKNKRALLDALAIEMMDRHQTHYLPLEGESWQDYLRNFAKSMRCALLSHRDGAKVALGTRWTEQQYETAENMLAFLTQQGFSLENALYATSAVRVFTLGAVLLDQEQQVAKQERETPTPDSMPPLLRQAWELKVHQGAEPAFLFGLELIIAGLEKQLKRESGSHHHHHH	11.3
CsL4.2-07 (protein, Sulfonylurea responsive repressor) MARLDKSKVINSALELLNEVGIEGLTTRKLAQKLGVEQPTLYWHVKNKRALLDALAIEMHDRHQTHYLPLEGESWQDYLRNFAKSMRCALLSHRDGAKIALGTRWTEQQYETAENMLAFLTQQGFSLENALYATDAVRVFTLGAVLLDQEQQVAKEERETPTPDSMPPLLRQAWELKVHQGAEPAFLFGLELIIAGLEKQLKRESGSHHHHHH	18.9
CsL4.2-12 (protein, Sulfonylurea responsive repressor) MARLDKSKVINSALELLNEVGIEGLTTRKLAQKLGVEQPTLYWHVKNKRALLDALAIEMHDRHGTHYLPLEGESWQDFLRNFAKSMRRALLSHRDGAKVALGTRWTEQQYETAENMLAFLTQQGFSLENALYATSAVRVFTLGAVLLDQEGQVANEERETPTTDSMPPLLRQAWELKVHQGAEPAFLFGLELIIAGLEKQLKRESGSHHHHHH	9.5
